src = PubChem BioAssay (NCI)

Tested on: OVCAR-8 ovarian
Assay: NCI tumour cell line growth inhibition, 48 h
outcome measure: TGI

Some molecules with recorded TGI:
molecule | TGI
CC(C)=CC1CCc2ccccc2N1S(=O)(=O)c1ccc(C)cc1 (stereo not given) | > 31.3 µM
NC(N)=C1CN(C2CCCCC2)C(=O)NC1=O | > 100 µM

Quick one: give measured TGI for COC1CC(C)(N)C(O)C(C)O1 (stereo not given)
> 100 µM

Quick one: give measured TGI for COC(=O)[C@@H](C[C@H](Cc1ccccc1)NC(=O)c1csc([C@@H](C[C@H](C(C)C)N(C)C(=O)[C@@H](NC(=O)[C@H]2CCCCN2C)C(C)C)OC(C)=O)n1)NC(=O)OCc1ccccc1
> 8.33 µM

Quick one: give measured TGI for CNC(=O)C(C)C1C(=O)/C(=C(O)/C=C\C(C)=C\C(C)C2OC3(C)OC(C=CC34CO4)C2C)C(=O)N1C1CCC(O)C(C)O1 (stereo not given)
> 100 µM

Quick one: give measured TGI for O=C1c2ccccc2C(=O)c2c(N=Nc3[nH]c(=S)[nH]c3O)cccc21
> 100 µM

Quick one: give measured TGI for Cc1ccc(S(=O)(=O)NC(=O)Nc2ccc(C(=O)O)c(O)c2)cc1
> 100 µM

Quick one: give measured TGI for NC1CSc2ccccc2NC1=O (stereo not given)
> 100 µM

Quick one: give measured TGI for CCC(=C(C#N)C#N)c1cc(OC)c(OC)c(OC)c1
> 100 µM

====

Tested on: OVCAR-8 ovarian
Test: NCI tumour cell line growth inhibition, 48 h
outcome measure: TGI

Some molecules with recorded TGI:
molecule | experimental result
CCCCNc1nc(N)nc(Nc2ccc(Br)cc2)c1N=O | > 100 µM
Cn1c(=O)c2c(nc3sc4nc5ccccc5nc4n32)n(C)c1=O | > 100 µM
CCCCCCc1nn2c(-c3ccncc3)nnc2s1 | > 10 µM
NNC1=N/C(=C\c2ccccc2O)C(=O)N1 | > 100 µM
COc1ccc(/C=C/C(=O)c2sc(NC(=S)NC(=O)c3ccccc3F)nc2C)cc1OC | > 100 µM

Quick one: give measured TGI for O=C(N/N=C\c1c(O)ccc2ccccc12)C1CC1
> 100 µM

Quick one: give measured TGI for CN1CCN(c2ccc3nc(-c4c5cccccc-5[nH]c4=O)[nH]c3c2)CC1
> 72.2 µM

Quick one: give measured TGI for N#CC(=N)c1ncn(CCO)c1NC(=O)C(F)(F)F
> 100 µM

Quick one: give measured TGI for O=C1OCC2=C1C(c1cccc(Cl)c1)c1cc3c(cc1N2CCO)OCO3 (centres undefined)
> 65.8 µM

Quick one: give measured TGI for O=C(C[Si](CC(=O)c1cccc(C(F)(F)F)c1)CC(=O)c1cccc(C(F)(F)F)c1)c1cccc(C(F)(F)F)c1
10.9 µM

Quick one: give measured TGI for Clc1ccc(C2c3ccccc3-c3nccn32)c(Cl)c1 (centres undefined)
32.5 µM

Quick one: give measured TGI for COC(=O)CC1C(C)(C)C(=O)C2CC3=C4CC(=O)OC(c5ccoc5)C4(C)CCC3C1(C)C2=O (centres undefined)
> 100 µM

Quick one: give measured TGI for CC(=O)Oc1ccc(O)c2c1CCCC2
32.9 µM

Quick one: give measured TGI for CC(=O)[CH-]C(C)=O.CC(=O)[CH-]C(C)=O.[CH2-]CCCCCCC.[CH2-]CCCCCCC.[Sn+4]
32.1 µM

====

System: HOP-62 NSCLC
Experiment: NCI tumour cell line growth inhibition, 48 h; in the data active means GI50 below about 0.43 µM; inactive means the rest
Give your call using only these classes: T for active, F for inactive

Reference set (6 entries):
smi | class label
COc1cc(O)c2c(=O)c(OC)c(-c3ccc(OC)c(OC)c3)oc2c1.[Co] | F
Cn1cc(C2=C(c3cn(CCSC(=N)N)c4ccccc34)C(=O)NC2=O)c2ccccc21 | F
CC(=O)[CH-]C(C)=O.CC(=O)[CH-]C(C)=O.[CH2-]CCCCCCC.[CH2-]CCCCCCC.[Sn+4] | F
COc1ccc2nc3cc(Cl)ccc3c(NCCCCCN3CCCCC3)c2c1 | T
CN1CCN(CCn2c3c4ccccc4ccc3c3oc(=O)c4ccccc4c32)CC1 | F
Cc1cc(Nc2cccc(F)c2)nc(NCc2ccccc2)n1 | F

Hi, sorry to bother you, what did the test record for NC(=O)c1cccc(N2Cc3ccccc3OC3=C2C(=O)c2c(O)ccc(O)c2C3=O)c1 ?
F

Hi, sorry to bother you, what did the test record for COC(=O)[C@@H](C[C@H](Cc1ccccc1)NC(=O)c1csc([C@@H](C[C@H](C(C)C)N(C)C(=O)[C@@H](NC(=O)[C@H]2CCCCN2C)C(C)C)OC(C)=O)n1)NC(=O)OCc1ccccc1 ?
T

Hi, sorry to bother you, what did the test record for Cc1c(C(=O)O)n(-c2ccc(Cl)cc2)c2ncnc(N)c12 ?
F

Hi, sorry to bother you, what did the test record for FC(F)(F)c1ccc(-c2cncn2-c2ccccc2)cc1 ?
F

Hi, sorry to bother you, what did the test record for CC(C)[C@]12O[C@H]1[C@@H]1O[C@]13[C@]1(O[C@H]1C[C@H]1C4=C(CC[C@@]13C)C(=O)OC4)[C@@H]2OC(=O)CN(C)C ?
T

Hi, sorry to bother you, what did the test record for COc1cccc2c1-c1ccccc1C2=O ?
F

Hi, sorry to bother you, what did the test record for O=C(O)CCCn1c(SCc2c(Cl)cccc2Cl)nc2ccsc2c1=O ?
F

====

Tested on: RPMI-8226 leukemia
Assay: NCI tumour cell line growth inhibition, 48 h; in the data active = GI50 below about 0.43 µM; inactive = the rest
Give your call using only these classes: active, inactive

compound | class label
O=C1OCC2=C1C(c1cccc(Cl)c1)c1cc3c(cc1N2CCO)OCO3 (configuration not stated) | inactive
COC(=O)C1=C(O)[C@H](C(=O)OC)C2(O)[C@@H](C(=O)OC)[C@H]1C[C@@H](c1ccc(OC(=O)n3ccnc3)cc1)[C@@H]2C(=O)OC | inactive
Nc1ccn(C2OC(CO)C3[O][Sn]([c]4ccccc4)([c]4ccccc4)[O]C32)c(=O)n1 (configuration not stated) | inactive
COc1ccc2nc3cc(Cl)ccc3c(NCCCCCN3CCCCC3)c2c1 | inactive
CO[C@H](C(=O)[C@@H](O)[C@@H](C)O)[C@@H]1Cc2cc3cc(O[C@H]4C[C@@H](O[C@H]5C[C@@H](O)[C@H](O)C(C)O5)[C@H](O)C(C)(O)O4)cc(O)c3c(O)c2C(=O)[C@H]1O[C@H]1C[C@@H](O[C@H]2C[C@@H](O[C@H]3C[C@@H](OC)[C@H](O)C(C)O3)[C@@H](O)C(C)O2)[C@H](O)C(C)O1 (some centres not stated) | inactive

Hi, sorry to bother you, what did the test record for CCN(CC)CCOc1ccc(/C=C2\CC3C4CC=C5C[C@@H](N6CCCC6)CC[C@]5(C)C4CC[C@]3(C)[C@H]2OC(C)=O)cc1OC (some centres not stated) ?
active

Hi, sorry to bother you, what did the test record for NC(=O)c1cccc(N2Cc3ccccc3OC3=C2C(=O)c2c(O)ccc(O)c2C3=O)c1 ?
active

Hi, sorry to bother you, what did the test record for CCOC(=O)/C=C/C1=C(c2csc3ccccc23)c2ccccc2CC1 ?
inactive

Hi, sorry to bother you, what did the test record for O=C1c2ccccc2C(=O)c2c(N=Nc3[nH]c(=S)[nH]c3O)cccc21 ?
inactive

Hi, sorry to bother you, what did the test record for CN([O-])c1nc(N(C)[O-])nc(N2CCOCC2)n1.CN([O-])c1nc(N(C)[OH2+])nc(N2CCOCC2)n1.[Fe+3] ?
inactive

Hi, sorry to bother you, what did the test record for Clc1ccc(C2c3ccccc3-c3nccn32)c(Cl)c1 (configuration not stated) ?
inactive

Hi, sorry to bother you, what did the test record for CC(=O)c1cc2c(c(O)c1C)C(=O)C(=O)c1c(O)cccc1-2 ?
inactive

====

Tested on: RPMI-8226 leukemia
Assay: NCI tumour cell line growth inhibition, 48 h
Measured TGI of individual entries

Some compounds with recorded TGI:
compound | TGI
Cn1cc(C2=C(c3cn(CCSC(=N)N)c4ccccc34)C(=O)NC2=O)c2ccccc21 | 10.1 µM
Cn1cnc([N+](=O)[O-])c1[Se]c1ncnc2nc[nH]c12 | 71.7 µM
O=C(CCN1CCCC1)CC(c1ccccc1)c1c(O)c2ccccc2oc1=O (configuration not stated) | > 100 µM
COC(=O)C1=C(O)[C@H](C(=O)OC)C2(O)[C@@H](C(=O)OC)[C@H]1C[C@@H](c1ccc(OC(=O)n3ccnc3)cc1)[C@@H]2C(=O)OC | > 50 µM
CC(=O)NC1C(OCc2ccccc2)OC(CO)C(O)C1OCC(=O)N1CCCC1C(=O)N[C@@H](CCC(=O)NCCNCCNc1c2ccccc2nc2cccc([N+](=O)[O-])c12)C(N)=O (some centres not stated) | 3.29 µM
COc1ccc(C=Nc2c(O)ccc3ccccc23)cc1OC | > 100 µM
COc1ccc(C(=O)/C=C2\C(=O)Nc3ccc(Br)cc32)cc1 | > 23.8 µM
Nc1nc(N)c2cc(CNc3ccc(C(=O)NC(CC(=O)O)C(=O)O)cc3)ccc2n1 (configuration not stated) | > 100 µM

Now for the compound whose TGI we want.
Output reported TGI of the compound CCCCOC(=O)NC(Nc1ccc(S(N)(=O)=O)cc1)(C(F)(F)F)C(F)(F)F on RPMI-8226 leukemia.
> 100 µM
